B1: E3 ubiquitin-protein ligase Midline-1, residues 172 to 214; numbered along this chain, O15344 (parent)
chain: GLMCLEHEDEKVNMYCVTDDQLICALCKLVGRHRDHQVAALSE

- Variants of: B1
- Procedure Text: abundance fitness (aPCA) (normalised: wild type 0, dead -1); higher = more abundant; growth selection in yeast, the domain comes from the species named
- Cond: Homo sapiens
What abundance fitness was measured for each of the following?
Give bare numbers.

Solved entries:
{"columns": ["Mutant Code", "abundance fitness"],
 "data": [
  ["G31W", -0.803],
  ["N13A", -0.146],
  ["E10T", -0.204],
  ["D20M", -0.067],
  ["I23E", -0.233],
  ["V12L", -0.233],
  ["H36G", -0.516],
  ["E6Y", -0.276],
  ["E6V", -0.183],
  ["H36E", -0.546]
]}

Please report abundance fitness for every entry that follows.
1. E10S
2. C16I
3. M14Q
4. A40K
5. E6T
6. A39C

output:
1. -0.079
2. -0.127
3. 0.242
4. 0.108
5. 0.001
6. 0.003
